# Protocol notes: Apparent permeability across human Caco-2 cell membrane
# Type: ADME, cell-based

| Given smiles | U | Papp |
| --- | --- | --- |
| CC(C)CCn1nc(N2CCOCC2)c(O)c(C2=NS(=O)(=O)c3cc(NS(C)(=O)=O)ccc3N2)c1=O | ×10⁻⁶ cm/s | 0.021 |
| CS(=O)(=O)Nc1ccc2c(c1)S(=O)(=O)N=C(c1c(O)c(N3CCCC3)nn(CCC3CC3)c1=O)N2 | ×10⁻⁶ cm/s | 0.22 |
| CC(C)CCn1nc(N2CCCC2)c(O)c(C2=Nc3ccc(NS(C)(=O)=O)cc3S(=O)(=O)N2)c1=O | ×10⁻⁶ cm/s | 0.32 |
| CC(C)(C)CCn1nc(N2CCCC2)c(O)c(C2=NS(=O)(=O)c3cc(NS(C)(=O)=O)ccc3N2)c1=O | ×10⁻⁶ cm/s | 0.37 |
| CCN(CC)c1nn(CCC(C)C)c(=O)c(C2=NS(=O)(=O)c3cc(NS(C)(=O)=O)ccc3N2)c1O | ×10⁻⁶ cm/s | 0.3 |
| CCCN(C)c1nn(CCC(C)C)c(=O)c(C2=NS(=O)(=O)c3cc(NS(C)(=O)=O)ccc3N2)c1O | ×10⁻⁶ cm/s | 0.12 |
| CC(C)CCn1nc(-c2cccs2)c(O)c(C2=Nc3ccc(NS(C)(=O)=O)cc3S(=O)(=O)N2)c1=O | ×10⁻⁶ cm/s | 0.02 |
| CC(C)CCn1nc(N(C)C(C)C)c(O)c(C2=NS(=O)(=O)c3cc(NS(C)(=O)=O)ccc3N2)c1=O | ×10⁻⁶ cm/s | 0.77 |
